Every entry's value here was drawn from patent US20240270821A1.

Biological target: hGIPR (Homo sapiens, UniProt P48546)
Sequence (P48546 22-466): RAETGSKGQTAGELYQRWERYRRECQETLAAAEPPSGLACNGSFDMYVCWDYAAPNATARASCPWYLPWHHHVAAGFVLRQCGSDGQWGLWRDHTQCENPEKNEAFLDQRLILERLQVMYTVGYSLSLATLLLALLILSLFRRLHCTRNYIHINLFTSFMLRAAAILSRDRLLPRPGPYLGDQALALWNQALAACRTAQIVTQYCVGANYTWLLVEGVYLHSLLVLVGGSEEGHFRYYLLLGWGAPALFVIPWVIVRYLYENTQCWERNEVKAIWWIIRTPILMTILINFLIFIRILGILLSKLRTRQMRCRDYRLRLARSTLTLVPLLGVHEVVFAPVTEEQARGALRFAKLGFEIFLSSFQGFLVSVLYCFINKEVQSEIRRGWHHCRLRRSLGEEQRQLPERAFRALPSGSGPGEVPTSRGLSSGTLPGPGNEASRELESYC
Experiment: Functional cAMP activation in the presence of 0.1% casein (no HSA);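 further: intracellular cAMP rise after 30 min at 37 °C read by HTRF against a standard curve, scaled between buffer alone (0%) and top control ligand concentration (100%), four-parameter fit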
Type: cell-based
Conditions: in the presence of 0.1% casein (no HSA); geometric mean; read-out: Relative cAMP EC50, hGIPR
Starred links: 1 amine or outer side, 2 acyl side, 3 side chain; linkers in the order of their positions; H or OH if unused. Non-standard residues stand in square brackets, D forms with d. Groups on a side chain read outwards from the residue. No end group written: not given here. *: point of attachment. C18 diacid = O=C(O)CCCCCCCCCCCCCCCCC(=O)*; γGlu = O=C(O)[C@H](CCC(=O)[*:2])N[*:1]; αMe4Pal = C[C@](N)(Cc1ccncc1)C(=O)O; αMeY = C[C@](N)(Cc1ccc(O)cc1)C(=O)O; 4Pal = N[C@@H](Cc1ccncc1)C(=O)O; αMeL = CC(C)C[C@](C)(N)C(=O)O; Orn = NCCC[C@H](N)C(=O)O; AEEA = NCCOCCOCC(=O)O; Aib = CC(C)(N)C(=O)O
OUTCOME_MEASURE: pEC50
Please report pEC50 as the negative decimal logarithm of the molar concentration, giving only the number.

Some substances with known pEC50 results, for comparison:
# SUBSTANCE, TARGET_DESC, pEC50
records = [
    ("H-Y[Aib]QGTFTSD[4Pal]S[Orn][αMeL]LD[Orn]K([γGlu-γGlu-C18 diacid])AQ[αMe4Pal][Orn]FIE[αMeY]LIEGGPSSGAPPPSGSEE-NH2 [Example 974]", "hGIPR (Homo sapiens, UniProt P48546)", 9.22),
    ("H-Y[Aib]QGTFTSD[4Pal]SQ[αMeL]LD[Orn]K([γGlu-γGlu-C18 diacid])AQ[αMe4Pal]AFIEYLIAGGPSSGEPPPSGSE [Example 977]", "hGIPR (Homo sapiens, UniProt P48546)", 9.72),
    ("H-Y[Aib]QGTFTSD[4Pal]SQ[αMeL]LDKK([γGlu-γGlu-C18 diacid])AQ[αMe4Pal]AFIEYLIE[Aib]GPSSGAPPPSGSGE-NH2 [Example 891]", "hGIPR (Homo sapiens, UniProt P48546)", 9.81),
]

Item H-Y[Aib]QGTFTSD[4Pal]S[Orn][αMeL]LDKK([γGlu-γGlu-C18 diacid])AQ[αMe4Pal]AFIEYLIAGGPSSGEPPPSGE-NH2 [Example 979] with hGIPR (Homo sapiens, UniProt P48546) - pEC50?
9.74

// repeat for H-Y[Aib]QGTFTSDFS[Orn][αMeL]LDKK([AEEA-γGlu-C18 diacid])AQ[Aib]AFIEYLLE[dA]GHSSGAPPPSGE-NH2 [Example 207] and report
9.49

// repeat for Y[Aib]QGTFTSD[4Pal]SQ[αMeL]LD[Orn]K([AEEA-γGlu-γGlu-C18 diacid])AQ[αMe4Pal]AFIEYLIE[dA]GPSSGAPPPSGS-NH2 [Example 1016] and report
9.66

====

Each entry below lists one item and its recorded EC50 value.
Molecular target: hGLP-1R (Homo sapiens)
Sequence (P43220 24-463): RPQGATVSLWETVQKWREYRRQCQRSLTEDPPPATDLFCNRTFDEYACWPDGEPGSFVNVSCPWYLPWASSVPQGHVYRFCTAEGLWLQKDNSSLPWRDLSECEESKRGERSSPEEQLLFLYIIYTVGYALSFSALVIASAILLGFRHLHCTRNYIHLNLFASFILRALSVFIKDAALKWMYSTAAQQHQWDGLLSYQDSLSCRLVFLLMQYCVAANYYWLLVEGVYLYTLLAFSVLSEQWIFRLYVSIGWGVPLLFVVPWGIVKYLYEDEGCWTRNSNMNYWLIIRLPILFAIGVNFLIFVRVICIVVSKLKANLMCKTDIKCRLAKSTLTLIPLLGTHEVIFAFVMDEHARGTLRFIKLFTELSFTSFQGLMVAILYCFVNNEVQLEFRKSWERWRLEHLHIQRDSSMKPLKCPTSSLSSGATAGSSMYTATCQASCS
Assay: Functional cAMP activity in the presence of 1% HSA
Format: cell-based
Conditions: read-out: cAMP Rel EC50, hGLP-1R
Starred links: 1 amine or outer side, 2 acyl side, 3 side chain; linkers in the order of their positions; H or OH if unused. Non-standard residues stand in square brackets, D forms with d. Groups on a side chain read outwards from the residue. No end group written: not given here. *: point of attachment. C20 diacid = O=C(O)CCCCCCCCCCCCCCCCCCC(=O)*; C18 diacid = O=C(O)CCCCCCCCCCCCCCCCC(=O)*; αMePhe(2-F) = C[C@](N)(Cc1ccccc1F)C(=O)O; γGlu = O=C(O)[C@H](CCC(=O)[*:2])N[*:1]; αMe4Pal = C[C@](N)(Cc1ccncc1)C(=O)O; αMeY = C[C@](N)(Cc1ccc(O)cc1)C(=O)O; 4Pal = N[C@@H](Cc1ccncc1)C(=O)O; αMeL = CC(C)C[C@](C)(N)C(=O)O; αMeS = C[C@](N)(CO)C(=O)O; Orn = NCCC[C@H](N)C(=O)O; AEEA = NCCOCCOCC(=O)O; Aib = CC(C)(N)C(=O)O
Your answer is read as nM, so omit the unit and give the number.

# SUBSTANCE, EC50, nM
data = [
    ("Y[Aib]QGT[αMePhe(2-F)]TSD[4Pal][αMeS]I[αMeL]LD[Orn]K([γGlu-γGlu-C18 diacid])AQ[αMe4Pal]EFI[dE][αMeY]LVEGGPSSGEPPPSGSEE-NH2 [Example 740]", 29.7),
    ("H-Y[Aib]QGT[αMePhe(2-F)]TSD[4Pal]SILLDKK([γGlu-γGlu-C18 diacid])AQ[Aib]AFIEWLEEGGPSSGAPPPSGTE-NH2 [Example 549]", 76.2),
    ("H-Y[Aib]QGTFTSDFSK[αMeL]LDKK([AEEA-γGlu-C20 diacid])AQ[Aib]AFIEYLLAGGPSSGEPPPGEG-NH2 [Example 31]", 737),
    ("Y[Aib]QGTFTSD[4Pal]SQ[αMeL]LDKK([AEEA-γGlu-C18 diacid])AQ[Aib]AFIE[αMeY]LIEGGPSSGAPPPSGS-NH2 [Example 838]", 72.2),
    ("H-H[Aib]QGT[αMePhe(2-F)]TSDYSILLDKK([AEEA-γGlu-C20 diacid])AA[Aib]AFIEYLIETGPSSGEPPPSEG-NH2 [Example 290]", 90),
    ("H-Y[Aib]QGTFTSDFS[Orn][αMeL]LDKK([AEEA-γGlu-C18 diacid])AQ[Aib]AFIEYLLEGGPSSGAPPPGGSG-NH2 [Example 64]", 397),
]

Using the record for Y[Aib]QGT[αMePhe(2-F)]TSD[4Pal]SI[αMeL]LD[Orn]K([AEEA-γGlu-C18 diacid])AQ[αMe4Pal][Orn]FI[dE][αMeY]LIEGGPSSGDPPPEAE-NH2 [Example 728] , report its EC50.
26.7

// repeat for H-Y[Aib]QGT[αMePhe(2-F)]TSD[4Pal][αMeS]I[αMeL]LD[Orn]K([AEEA-γGlu-C18 diacid])AA[Aib]EFI[dE][αMeY]LIEGGPSSGAPPPSG[dE]-NH2 [Example 721] and report
27.1

// repeat for Y[Aib]QGT[αMePhe(2-F)]TSD[4Pal][αMeS]I[αMeL]LD[Orn]K([AEEA-γGlu-C18 diacid])AQ[αMe4Pal]EFI[dE][αMeY]LIEGGPPS[Aib]EPPPEGE-NH2 [Example 1190] and report
77.4

// repeat for H-Y[Aib]QGTFTSDFS[Orn][αMeL]LDKK([AEEA-γGlu-γGlu-C18 diacid])AQ[Aib]AFIEYLLE[Aib]GPSSGAPPPSG[4Pal]-NH2 [Example 279] and report
367

// repeat for H-Y[Aib]QGTFTSD[4Pal]SK[αMeL]LDKK([AEEA-γGlu-C18 diacid])AQ[Aib]AFIEYLIE[Aib]GESSGEPPPSGS-NH2 [Example 282] and report
217
